Cited source: patent US20260224494A1

assay: Solubility of milvexian forms in organic solvent systems; assay type: physicochemical; conditions: 100% DCM, 40 °C, organic solvent or mixture, 100% DCM; temperature 40; read-out: Solubility in mg/mL solution
Readout: solubility (mg/mL)
Give bare numbers, in mg/mL.

solubility for C[C@@H]1CCC[C@H](n2cnc(-c3cc(Cl)ccc3-n3cc(Cl)nn3)cc2=O)c2cc(ccn2)-c2c(cnn2C(F)F)NC1=O [Milvexian] is 51
